# pKd per record follows
targetOrSystem: bovine rod CNGA1 channels (Bos taurus, UniProt Q00194)
Format: biochemical
reportedConditions: read-out: average KD0; 0 mV, average of several patches
pKd: −log10 of the molar value.

{"columns": ["structure", "pKd"],
 "data": [
  ["CC[N+](CC)(CC)CC", 1.46],
  ["CCCC[N+](CC)(CC)CC", 1.96],
  ["CCCCCCCCCC[N+](CC)(CC)CC", 4.30],
  ["CCCCCCCC[N+](CC)(CC)CC", 3.05],
  ["CCC[N+](CC)(CC)CC", 1.51],
  ["CCCCCC[N+](CC)(CC)CC", 2.30]
]}

====

targetOrSystem: bovine rod CNGA1 channels (Bos taurus)
Type: biochemical
reportedConditions: four blockers in the same patch (Fig. 4 C), 1 mM cGMP

{"columns": ["structure", "targetOrSystem", "δ (Woodhull fit, best-fit)"],
 "data": [
  ["CCCCCCCC[N+](CC)(CC)CC", "bovine rod CNGA1 channels (Bos taurus)", "−0.44 ± 0.02"],
  ["CCCCCC[N+](CC)(CC)CC", "bovine rod CNGA1 channels (Bos taurus)", "−0.53 ± 0.02"],
  ["CCCC[N+](CC)(CC)CC", "bovine rod CNGA1 channels (Bos taurus)", "−0.45 ± 0.02"],
  ["CCCCCCCCCC[N+](CC)(CC)CC", "bovine rod CNGA1 channels (Bos taurus)", "−0.44 ± 0.01"]
]}

====

# average δ per record follows
targetOrSystem: bovine rod CNGA1 channels (Bos taurus, UniProt Q00194)
Sequence (Q00194 1-690): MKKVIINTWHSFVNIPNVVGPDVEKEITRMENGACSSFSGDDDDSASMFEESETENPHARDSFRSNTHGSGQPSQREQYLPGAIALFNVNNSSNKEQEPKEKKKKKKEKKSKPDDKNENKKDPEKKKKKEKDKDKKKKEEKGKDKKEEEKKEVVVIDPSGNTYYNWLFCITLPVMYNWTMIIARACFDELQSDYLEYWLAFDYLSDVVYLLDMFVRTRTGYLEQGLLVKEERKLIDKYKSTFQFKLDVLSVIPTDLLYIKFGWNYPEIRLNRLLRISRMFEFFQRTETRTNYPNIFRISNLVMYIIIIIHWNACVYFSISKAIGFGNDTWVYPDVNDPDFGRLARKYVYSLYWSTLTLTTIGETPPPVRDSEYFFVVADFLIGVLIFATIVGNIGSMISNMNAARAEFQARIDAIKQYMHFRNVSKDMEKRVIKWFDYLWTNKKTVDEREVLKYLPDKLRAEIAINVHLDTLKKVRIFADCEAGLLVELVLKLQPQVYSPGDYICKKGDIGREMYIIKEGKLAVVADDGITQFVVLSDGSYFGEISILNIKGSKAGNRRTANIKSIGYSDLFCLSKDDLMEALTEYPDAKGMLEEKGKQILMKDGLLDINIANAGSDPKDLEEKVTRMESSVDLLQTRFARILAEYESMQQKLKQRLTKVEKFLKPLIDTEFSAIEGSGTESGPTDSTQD
Format: biochemical
reportedConditions: average of several patches
readoutName: average δ

{"columns": ["structure", "quantitativeReadout"],
 "data": [
  ["CC[N+](CC)(CC)CC", "−0.31"],
  ["CCCC[N+](CC)(CC)CC", "−0.40"],
  ["CCCCCC[N+](CC)(CC)CC", "−0.48"],
  ["CCC[N+](CC)(CC)CC", "−0.40"]
]}
